# Test system: Stagonospora nodorum
# Protocol details: Test D: wheat glume blotch, preventive spray on wheat seedlings
# Measurement context: 10 ppm test solution; 100 = 100% disease control, 0 = no control relative to controls
Measured endpoint: Test D disease control rating (%)
Write it as a number; the unit % goes unstated.

Exercise: Determine its reported Test D disease control rating: OC(Cn1cncn1)(C1=NOC2c3ccccc3CCC12)c1ccc(Cl)cc1 (stereo not shown) [Compound 222]
Solution: 50

Exercise: Provide one value: measured Test D disease control rating of CC(C)CC(O)(Cn1cncn1)C1=NOC(COc2ccc(Cl)cc2)C1 (single isomer, unassigned) [Compound 267]
Solution: 100

Exercise: Name the recorded Test D disease control rating of the item CC(C)(C)C(O)(Cn1cncn1)C1=NOC(COc2ccc(Cl)c(Cl)c2)C1 (single isomer, unassigned) [Compound 257] in your answer.
Solution: 100

Exercise: Please list Test D disease control rating recorded for the molecule CCC(C)(C)C(O)(Cn1cncn1)C1=NOC(COc2ccc(F)cc2)C1 (single isomer, unassigned) [Compound 249]
Solution: 100

Exercise: Identify measured Test D disease control rating corresponding to COc1ccc(OCC2CC(C(O)(Cn3cncn3)C(C)(C)C)=NO2)cc1 (single isomer, unassigned) [Compound 259]
Solution: 99

Exercise: Provide one value: measured Test D disease control rating of CC(C)CC(O)(Cn1cncn1)C1=NOC(COc2ccc(Cl)cc2)C1 (single isomer, unassigned) [Compound 268]
Solution: 82

Exercise: # return recorded Test D disease control rating for input CC1(COc2ccc(Cl)cc2)CC(C(O)(Cn2cncn2)C(C)(C)C)=NO1 (single isomer, unassigned) [Compound 216]
Solution: 86

---

# Tested on: Zymoseptoria tritici
# Protocol details: Test E: wheat leaf blotch, preventive spray on wheat seedlings
# Measurement context: 10 ppm; wheat leaf blotch; 100 = 100% disease control, 0 = no control
Field: Test E rating (% disease control). Provide a value for each of the molecules that follow.
Entry rule: numbers only, all in %.

Exercise: For OC(Cn1cncn1)(C1=NOC(COCc2ccccc2)C1)c1ccc(Cl)cc1 (single isomer, unassigned) [Compound 57] , write its Test E rating (% disease control).
Solution: 0

Exercise: Return Test E rating (% disease control) (reported value) for this molecule: CC(C)(C)C(O)(Cn1cncn1)C1=NOC(COc2ccc(I)cc2)C1 (single isomer, unassigned) [Compound 185]
Solution: 0

Exercise: Fill in Test E rating (% disease control) for record CC(C)(C)C(O)(Cn1cncn1)C1=NOC(COc2ccc(Cl)cc2)C1 (stereo not shown) [Compound 175]
Solution: 1

Exercise: For the molecule CC(C)(C)C(O)(Cn1cncn1)C1=NOC(Cn2ccc(C(F)(F)F)n2)C1 (single isomer, unassigned) [Compound 48] , give its measured Test E rating (% disease control) value.
Solution: 0

---

# Tested on: Erysiphe graminis f sp. tritici
# Protocol details: Test G: wheat powdery mildew, preventive spray on wheat seedlings
# Measurement context: 10 ppm; wheat powdery mildew; 100 = 100% disease control, 0 = no control
Provide the reported Test G rating (% disease control) of each item.
Give the value, in units of %, as a plain number.

Exercise: # lookup: Erysiphe graminis f sp. tritici Test G rating (% disease control), key = OC(Cn1cncn1)(C1=NOC(Cc2ccc(Cl)cc2)C1)c1ccc(Cl)cc1 (single isomer, unassigned) [Compound 199]
Solution: 100

Exercise: // fetch Test G rating (% disease control); item: OC(Cn1cncn1)(C1=NOC(c2ccc(F)cc2)C1)c1ccc(Cl)cc1 (single isomer, unassigned) [Compound 158] ; system: Erysiphe graminis f sp. tritici
Solution: 100

Exercise: State recorded Test G rating (% disease control) with Erysiphe graminis f sp. tritici, entry CCCCC(O)(Cn1cncn1)C1=NOC(c2ccc(Cl)cc2)C1 (single isomer, unassigned) [Compound 156] , no comment.
Solution: 100

Exercise: Consider the molecule Cn1nc(C(F)(F)F)cc1OCC1CC(C(O)(Cn2cncn2)C(C)(C)C)=NO1 (single isomer, unassigned) [Compound 47] tested on Erysiphe graminis f sp. tritici; state its Test G rating (% disease control).
Solution: 84

Exercise: Report value only: Test G rating (% disease control), Erysiphe graminis f sp. tritici, CC(C)(C)CC1CC(C(O)(Cn2cncn2)c2ccc(Cl)cc2)=NO1 (single isomer, unassigned) [Compound 75]
Solution: 97

Exercise: # assay system Erysiphe graminis f sp. tritici: give Test G rating (% disease control) of C[S+]([O-])c1ccc(C2CC(C(O)(Cn3cncn3)c3ccc(Cl)cc3)=NO2)cc1 (single isomer, unassigned) [Compound 111]
Solution: 98

Exercise: Check Erysiphe graminis f sp. tritici data and give Test G rating (% disease control) for C=CCC(O)(Cn1cncn1)C1=NOC(c2ccc(Cl)cc2)C1 (single isomer, unassigned) [Compound 85] .
Solution: 87

Exercise: Tell me its Test G rating (% disease control) on Erysiphe graminis f sp. tritici: OC(Cn1cncn1)(C1=NOC(CSc2ccccc2)C1)c1ccc(Cl)cc1 (single isomer, unassigned) [Compound 50]
Solution: 94

Exercise: Provide Test G rating (% disease control), tested on Erysiphe graminis f sp. tritici, for CCC(C)(C)C(O)(Cn1cncn1)C1=NOC(Cc2ccc(Cl)cc2)C1 (single isomer, unassigned) [Compound 18] .
Solution: 99

Exercise: Given OC(Cn1cncn1)(C1=NOC(c2ccc(Cl)cc2)C1)c1ccc(Br)cc1 (single isomer, unassigned) [Compound 181] , report its Test G rating (% disease control) on Erysiphe graminis f sp. tritici.
Solution: 69

Exercise: Under Erysiphe graminis f sp. tritici: report Test G rating (% disease control) of OC(Cn1cncn1)(C1=NOC(Cc2ccc(F)cc2)C1)c1ccc(Cl)cc1 (single isomer, unassigned) [Compound 200] .
Solution: 99

Exercise: GET Test G rating (% disease control) | system: Erysiphe graminis f sp. tritici | item: CS(=O)(=O)c1ccc(C2CC(C(O)(Cn3cncn3)c3ccc(Cl)cc3)=NO2)cc1 (single isomer, unassigned) [Compound 113]
Solution: 98

Exercise: Consider the molecule CC(C)(C)CC(O)(Cn1cncn1)C1=NOC(COc2ccc(Cl)cc2)C1 (single isomer, unassigned) [Compound 173] tested on Erysiphe graminis f sp. tritici; state its Test G rating (% disease control).
Solution: 97

Exercise: Please tell me the measured Test G rating (% disease control) for CC(C)(C)C(O)(Cn1cncn1)C1=NOC(COc2ccc(Cl)cc2)C1 (centres unmarked) [Compound 174] ; system: Erysiphe graminis f sp. tritici.
Solution: 100
